Property: TGI; scope: individual compounds
Test system: NCI-H522 lung
Assay: NCI tumour cell line growth inhibition, 48 h

| compound | TGI |
| --- | --- |
| COc1cc(O)c2c(=O)cc(C3(OC(C)=O)C=CC(OC4OC(CO)C(O)C(O)C4O)C=C3)oc2c1 (stereo not drawn) | > 100 µM |
| c1cc(-c2ccc(Oc3ccc(-c4ccncc4)cc3)cc2)ccn1 | > 79.4 µM |
| COc1ccc(C(=O)Nc2ccccc2)cc1[N+](=O)[O-] | > 100 µM |

* * *

Tested on: BT-549 breast
Assay: NCI tumour cell line growth inhibition, 48 h

| compound | experimental_system | GI50 |
| --- | --- | --- |
| O=[N+]([O-])c1ccc([I+]c2ccccc2)cc1 | BT-549 breast | 1.63 µM |
| CC[C@]12C=CCN3CC[C@]4(C(=C(C(=O)OC)C1)Nc1ccccc14)[C@@H]32 | BT-549 breast | 8.71 µM |
| CCOC(=O)/C(=C/c1c(-c2ccccc2)[nH]c2ccccc12)C(=O)c1ccc(Cl)cc1 | BT-549 breast | 8.82 µM |
| CC1(C)CCC(CN2CCN(c3ccc(C(=O)NS(=O)(=O)c4ccc(NCC5CCOCC5)c([N+](=O)[O-])c4)c(Oc4cnc5[nH]ccc5c4)c3)CC2)=C(c2ccc(Cl)cc2)C1 | BT-549 breast | 3.13 µM |
| N=C(N)c1ccc(-c2ccc(-c3ccccc3)o2)cc1 | BT-549 breast | 13.1 µM |
| COc1ccc(C2=NN(c3ccc(S(N)(=O)=O)cc3)C(c3ccc(Cl)cc3)C2)c(O)c1 (centres undefined) | BT-549 breast | 4.07 µM |
| Cc1ccc2c(c1)/C(=N\N=C/c1cn(C(C)C)c3ccccc13)C(=O)N2 | BT-549 breast | 3.58 µM |
| CCN(CC)c1ccc(/C=C/C2=[N+](C)c3ccccc3C2(C)C)cc1 | BT-549 breast | 0.226 µM |
| CCCCCCCCCCCCCCCc1ccc(C(=O)C[n+]2ccccc2)cc1 | BT-549 breast | 2.88 µM |
